molecular target: Cholinesterase (Equus caballus) (UniProt P81908); assay: Inhibition of equine serum BuChE at 50 uM pre-incubated for 15 mins before butylthiocholine chloride substrate addition by Ellman assay
Sequence (P81908 whole entry): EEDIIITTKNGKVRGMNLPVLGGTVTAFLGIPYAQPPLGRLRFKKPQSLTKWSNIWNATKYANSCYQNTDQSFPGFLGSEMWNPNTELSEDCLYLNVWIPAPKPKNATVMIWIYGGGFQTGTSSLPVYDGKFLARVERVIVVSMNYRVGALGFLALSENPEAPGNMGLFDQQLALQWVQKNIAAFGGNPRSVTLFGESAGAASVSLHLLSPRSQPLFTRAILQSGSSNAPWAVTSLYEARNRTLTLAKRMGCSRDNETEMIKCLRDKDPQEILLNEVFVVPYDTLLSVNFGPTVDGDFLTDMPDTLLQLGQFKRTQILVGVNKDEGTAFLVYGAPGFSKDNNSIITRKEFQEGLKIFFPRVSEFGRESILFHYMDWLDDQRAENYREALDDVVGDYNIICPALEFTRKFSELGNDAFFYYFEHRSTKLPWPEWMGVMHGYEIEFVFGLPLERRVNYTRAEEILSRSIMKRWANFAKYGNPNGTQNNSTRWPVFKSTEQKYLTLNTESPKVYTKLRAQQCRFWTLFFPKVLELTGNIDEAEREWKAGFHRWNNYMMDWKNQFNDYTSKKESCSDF
Measured inhibition, listed per entry for reference.

smiles_entry: COc1cc(/C=C/C(=O)NCCCN(C)Cc2ccccc2)ccc1O
sign_qualifier: <
inhibition (%): 5
//
smiles_entry: COc1cc(/C=C/C(=O)NCCCCN(C)Cc2ccccc2)ccc1O
sign_qualifier: <
inhibition (%): 5
//
smiles_entry: CCN(CCCCCCNC(=O)/C=C/c1ccc(O)c(OC)c1)Cc1ccccc1
sign_qualifier: =
inhibition (%): 17.2
//
smiles_entry: COc1cc(/C=C/C(=O)NCCCN(C)Cc2ccccc2OC)ccc1O
sign_qualifier: =
inhibition (%): 15.8
//
smiles_entry: CCN(CCCNC(=O)/C=C/c1ccc(O)c(OC)c1)Cc1ccccc1OC
sign_qualifier: =
inhibition (%): 31.4
//
smiles_entry: COc1cc(/C=C/C(=O)NCCCCCCN(C)Cc2ccccc2)ccc1O
sign_qualifier: <
inhibition (%): 5
//
smiles_entry: COc1cc(/C=C/C(=O)NCCCCN(C)Cc2ccccc2OC)ccc1O
sign_qualifier: =
inhibition (%): 34.6
//
smiles_entry: CCN(CCCCNC(=O)/C=C/c1ccc(O)c(OC)c1)Cc1ccccc1
sign_qualifier: <
inhibition (%): 5

Provenance of the data: ChEMBL document CHEMBL3792354
